Catalogue of pEC50 values
- TEST_TARGET: human F508del-CFTR (Homo sapiens, UniProt P13569, DEL508-508)
- Sequence (P13569 with tags, fused parts or gaps DEL508-508): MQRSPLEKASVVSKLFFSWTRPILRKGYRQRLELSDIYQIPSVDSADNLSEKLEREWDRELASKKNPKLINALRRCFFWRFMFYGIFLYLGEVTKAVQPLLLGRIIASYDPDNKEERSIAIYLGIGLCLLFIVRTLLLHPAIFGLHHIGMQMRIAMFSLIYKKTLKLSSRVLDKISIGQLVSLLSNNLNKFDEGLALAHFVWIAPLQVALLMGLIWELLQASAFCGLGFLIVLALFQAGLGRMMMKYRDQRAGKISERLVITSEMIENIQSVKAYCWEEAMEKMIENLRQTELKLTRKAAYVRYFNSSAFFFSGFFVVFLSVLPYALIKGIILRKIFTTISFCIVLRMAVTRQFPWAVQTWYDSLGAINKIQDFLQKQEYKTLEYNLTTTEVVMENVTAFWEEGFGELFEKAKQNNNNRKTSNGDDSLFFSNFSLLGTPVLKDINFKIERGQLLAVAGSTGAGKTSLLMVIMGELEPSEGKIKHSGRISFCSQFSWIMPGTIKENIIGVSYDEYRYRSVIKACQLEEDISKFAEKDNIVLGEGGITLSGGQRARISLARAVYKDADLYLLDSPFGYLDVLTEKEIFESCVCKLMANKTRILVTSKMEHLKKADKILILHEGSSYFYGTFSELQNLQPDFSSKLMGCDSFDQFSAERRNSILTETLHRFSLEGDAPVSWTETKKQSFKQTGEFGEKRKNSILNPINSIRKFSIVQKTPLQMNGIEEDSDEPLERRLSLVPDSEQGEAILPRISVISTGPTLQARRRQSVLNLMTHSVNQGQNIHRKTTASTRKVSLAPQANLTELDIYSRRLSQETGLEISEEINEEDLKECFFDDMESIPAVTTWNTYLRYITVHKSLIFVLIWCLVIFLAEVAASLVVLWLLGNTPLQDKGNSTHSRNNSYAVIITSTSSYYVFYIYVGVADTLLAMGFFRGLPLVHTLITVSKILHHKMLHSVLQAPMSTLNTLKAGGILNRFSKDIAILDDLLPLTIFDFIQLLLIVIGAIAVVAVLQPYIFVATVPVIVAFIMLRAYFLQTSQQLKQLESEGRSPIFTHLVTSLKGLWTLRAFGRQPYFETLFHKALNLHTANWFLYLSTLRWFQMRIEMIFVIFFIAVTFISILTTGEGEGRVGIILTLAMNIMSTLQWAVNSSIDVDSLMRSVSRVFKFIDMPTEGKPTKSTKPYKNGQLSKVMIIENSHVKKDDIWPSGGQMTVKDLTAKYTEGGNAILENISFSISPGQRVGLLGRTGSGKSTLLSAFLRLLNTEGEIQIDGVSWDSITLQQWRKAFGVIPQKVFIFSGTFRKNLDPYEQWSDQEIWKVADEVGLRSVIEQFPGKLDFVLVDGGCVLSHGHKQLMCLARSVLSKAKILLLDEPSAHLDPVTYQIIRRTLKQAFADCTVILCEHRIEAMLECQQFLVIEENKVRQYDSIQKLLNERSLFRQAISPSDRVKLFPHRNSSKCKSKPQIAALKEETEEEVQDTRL
- PROTOCOL: F508del-CFTR cell surface expression (corrector activity), DiscoveRx ß-galactosidase complementation chemiluminescence assay in recombinant U2OS cell line
- PARTICULARS: EC50, F508del-CFTR cell surface expression, U2OS cell line, 16h compound incubation; geomean values
Answer as the number alone; pEC50 is minus log10 of concentration in mol/L.

The molecule identified as CC(C)C[C@H]1C(=O)N(CCC2CCCCC2)CC(=O)N[C@H](Cc2ccccc2)COc2ccncc2C(=O)N[C@H](C(=O)NCCc2ccc3c(c2)OCCC3)CC(=O)N1C [Example 261] registered its pEC50 at 6.49

The molecule identified as CC(C)C[C@H]1C(=O)N(C)C2(CC2)C(=O)N[C@H](Cc2ccccc2)COc2cnc3ccc(F)cc3c2C(=O)N[C@H](C(=O)NCCc2ccc(-c3ncccn3)cc2)CC(=O)N1C [Example 137] registered its pEC50 at 6.60

The molecule identified as CC(C)C[C@H]1C(=O)N(C)C2(CC2)C(=O)N[C@H](Cc2ccccc2)COc2cnc3ccccc3c2C(=O)N[C@H](C(=O)NCCc2noc(C(C)(C)C)n2)CC(=O)N1C [Example 116] registered its pEC50 at 6.26

The molecule identified as COc1ccc(CCNC(=O)[C@@H]2CC(=O)N(C)[C@@H](CC(C)C)C(=O)N3CCCC[C@@H]3C(=O)N[C@H](Cc3ccccc3)COc3cnc4ccccc4c3C(=O)N2)cc1C [Example 95] registered its pEC50 at 6.60

The molecule identified as [2H]C([2H])([2H])Oc1cccc(CCNC(=O)[C@@H]2CC(=O)N(C)[C@@H](CC(C)C)C(=O)N(CCC3CCCCC3)CC(=O)N[C@H](Cc3ccccc3)COc3cccc(OC)c3C(=O)N2)c1 [Example 200] registered its pEC50 at 6.68

###

- TEST_TARGET: human F508del-CFTR (Homo sapiens, UniProt P13569, DEL508-508)
- PROTOCOL: F508del-CFTR cell surface expression (corrector activity), DiscoveRx ß-galactosidase complementation chemiluminescence assay in recombinant U2OS cell line;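 also: U2OS cells co-expressing ProLink-tagged F508del-CFTR and a membrane-anchored enzyme acceptor, where more surface CFTR restores β-galactosidase activity measured by chemiluminescence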
- PARTICULARS: EC50, F508del-CFTR cell surface expression, U2OS cell line, 16h compound incubation; geomean values
REPORTED_METRIC: EC50

Example compounds with recorded EC50:
CC(C)C[C@H]1C(=O)N2CCOC[C@@H]2C(=O)N[C@H](Cc2ccccc2)COc2ccc3ccccc3c2C(=O)N[C@H](C(=O)NCCc2noc(C3CC3)n2)CC(=O)N1C: 0.682 µM
COc1ccc(CCNC(=O)[C@@H]2CC(=O)N(C)[C@@H](CC(C)C)C(=O)N3CCCC[C@@H]3C(=O)N[C@H](Cc3ccccc3)COc3cnc4ccccc4c3C(=O)N2)cc1F: 0.184 µM
COc1cc(OC)c2c(c1)OC[C@@H](Cc1ccccc1)NC(=O)CN(CCC1CCCCC1)C(=O)[C@H](CC(C)C)N(C)C(=O)C[C@@H](C(=O)NCCc1ccc3c(c1)OCC3)NC2=O: 0.091 µM
CC(C)C[C@H]1C(=O)N2CCOC[C@@H]2C(=O)N[C@H](Cc2ccccc2)COc2cnc3ccccc3c2C(=O)N[C@H](C(=O)NCCc2cc(C(F)(F)F)no2)CC(=O)N1C: 0.833 µM

Please examine the following record next.
The compound identified as CC(C)C[C@H]1C(=O)N2CCCC[C@@H]2C(=O)N[C@H](Cc2ccccc2)COc2cnc3ccccc3c2C(=O)N[C@H](C(=O)NCCc2noc(C3CC3)n2)CC(=O)N1C registered its EC50 at 0.17 µM
